experiment: Retention time of the compound in isocratic acetonitrile/water by HPLC analysis; conditions: buffer
Starred links: 1 amine or outer side, 2 acyl side, 3 side chain; linkers in the order of their positions; H or OH if unused. Non-standard residues stand in square brackets, D forms with d. Residues, ends and D or L forms follow the SMILES beside them. Ile(ψThz) = CC[C@H](C)[C@H](N[*:1])c1nc(C(=O)[*:2])cs1; NMeF = CN[C@@H](Cc1ccccc1)C(=O)O
experimental-endpoint: Retention_time (min)
Unit min implied. Number only.

These recorded examples may help you get a feel for the data.
• CC[C@H](C)[C@@H]1NC(=O)[C@@H]2CCCN2C(=O)[C@H](C(C)C)NC(=O)[C@@H]2CCCN2C(=O)[C@H](Cc2ccccc2)NC(=O)[C@H](C)NC(=O)c2csc1n2 (cyclo(AFPVP[Ile(ψThz)])) = 1.97
• CC[C@H](C)[C@@H]1NC(=O)[C@@H]2CCCN2C(=O)[C@H](Cc2ccccc2)N(C)C(=O)[C@H](CC(C)C)NC(=O)c2csc(n2)[C@H]([C@@H](C)CC)NC(=O)[C@@H]2CCCN2C1=O (cyclo(IP[Ile(ψThz)]L[NMeF]P)) = 5.06
• CC[C@H](C)[C@@H]1NC(=O)[C@@H]2CCCN2C(=O)[C@H](Cc2ccccc2)NC(=O)[C@H](CC(C)C)NC(=O)c2csc(n2)[C@H]([C@@H](C)CC)NC(=O)[C@@H]2CCCN2C1=O (cyclo(FPIP[Ile(ψThz)]L)) = 9.13

Continue with the next compound.
Challenge: May I ask what Retention_time has been recorded for CC[C@H](C)[C@@H]1NC(=O)[C@@H]2CCCN2C(=O)[C@H](C(C)C)NC(=O)[C@@H]2CCCN2C(=O)[C@H](Cc2ccccc2)N(C)C(=O)[C@H](C)NC(=O)c2csc1n2 (cyclo(A[NMeF]PVP[Ile(ψThz)])) ?
Response given: 2.24

====

Documented Papp A→B at 2 h, 10 µM across a set of molecules
assay: Apparent permeability from apical to basolateral side in human Caco2 cells at 10 uM after 2 hrs by LC-MS/MS analysis; settings: Caco-2
Starred links: 1 amine or outer side, 2 acyl side, 3 side chain; linkers in the order of their positions; H or OH if unused. Non-standard residues stand in square brackets, D forms with d. Residues, ends and D or L forms follow the SMILES beside them. Ile(ψThz) = CC[C@H](C)[C@H](N[*:1])c1nc(C(=O)[*:2])cs1; ValThz = CC(C)[C@H](N[*:1])c1nc(C(=O)[*:2])cs1

- CC[C@H](C)[C@@H]1NC(=O)c2csc(n2)[C@H]([C@@H](C)CC)NC(=O)[C@@H]2CCCN2C(=O)[C@H]([C@@H](C)CC)NC(=O)[C@@H]2CCCN2C(=O)[C@H](Cc2ccccc2)NC1=O (cyclo(FPIP[Ile(ψThz)]I)): 9.6 ×10⁻⁶ cm/s

In the following, a different molecule is considered.
Challenge: Can you look up the measured Papp A→B at 2 h, 10 µM of CC[C@H](C)[C@@H]1NC(=O)[C@@H]2CCCN2C(=O)[C@H](Cc2ccccc2)NC(=O)[C@H](C)NC(=O)c2csc(n2)[C@H](C(C)C)NC(=O)[C@@H]2CCCN2C1=O (cyclo(AFPIP[ValThz])) for me?
Response given: 3.7 ×10⁻⁶ cm/s

Where do these numbers come from? They come from ChEMBL document CHEMBL3616364.
